Record form. Attribute: IC50. Fill in for each entry.
target.of.assay: IGF-1R (Homo sapiens, UniProt P08069)
Construct: expressed in transfected cells
Sequence (P08069 31-1367): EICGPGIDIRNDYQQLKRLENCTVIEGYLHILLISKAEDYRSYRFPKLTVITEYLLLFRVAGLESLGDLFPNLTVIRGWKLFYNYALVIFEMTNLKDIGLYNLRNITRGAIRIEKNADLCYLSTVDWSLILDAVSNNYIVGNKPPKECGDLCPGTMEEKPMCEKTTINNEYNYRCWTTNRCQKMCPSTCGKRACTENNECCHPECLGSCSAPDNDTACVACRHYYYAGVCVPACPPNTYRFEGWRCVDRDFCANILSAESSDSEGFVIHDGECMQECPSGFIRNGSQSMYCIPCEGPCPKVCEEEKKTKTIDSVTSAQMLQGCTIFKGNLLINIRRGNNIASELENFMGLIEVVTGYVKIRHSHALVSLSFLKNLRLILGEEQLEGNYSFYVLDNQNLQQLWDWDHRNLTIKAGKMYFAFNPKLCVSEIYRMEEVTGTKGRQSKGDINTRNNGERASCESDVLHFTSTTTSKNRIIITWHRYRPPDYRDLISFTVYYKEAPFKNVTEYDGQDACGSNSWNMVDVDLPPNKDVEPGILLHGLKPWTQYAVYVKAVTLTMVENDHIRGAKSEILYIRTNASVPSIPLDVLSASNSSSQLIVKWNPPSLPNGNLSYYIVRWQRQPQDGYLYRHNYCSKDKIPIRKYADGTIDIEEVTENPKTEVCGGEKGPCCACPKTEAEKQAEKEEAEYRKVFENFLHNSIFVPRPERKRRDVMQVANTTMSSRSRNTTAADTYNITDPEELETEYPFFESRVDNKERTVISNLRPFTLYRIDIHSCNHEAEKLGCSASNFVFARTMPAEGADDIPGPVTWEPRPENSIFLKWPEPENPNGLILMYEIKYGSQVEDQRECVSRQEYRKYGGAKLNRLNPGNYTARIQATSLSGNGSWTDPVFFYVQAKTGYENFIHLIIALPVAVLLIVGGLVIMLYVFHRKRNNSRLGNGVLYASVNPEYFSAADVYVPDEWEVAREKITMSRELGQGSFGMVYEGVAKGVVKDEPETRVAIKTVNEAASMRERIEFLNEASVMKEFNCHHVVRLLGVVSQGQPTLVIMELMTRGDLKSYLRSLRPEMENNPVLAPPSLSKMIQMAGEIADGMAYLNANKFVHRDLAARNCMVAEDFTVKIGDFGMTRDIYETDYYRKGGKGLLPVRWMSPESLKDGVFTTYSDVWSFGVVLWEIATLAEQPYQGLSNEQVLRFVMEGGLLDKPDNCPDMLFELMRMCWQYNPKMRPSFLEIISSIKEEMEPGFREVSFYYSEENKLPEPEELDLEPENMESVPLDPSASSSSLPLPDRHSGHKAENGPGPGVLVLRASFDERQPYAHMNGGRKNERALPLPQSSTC
experiment.notes: Example B-2: IGF-1R Assay (PathHunter cell lines, EC80 agonist challenge, chemiluminescent detection)
Format: cell-based
run.conditions: PathHunter cells, compound 60 minutes at 37° C., EC80 agonist 3 hours; read-out: IC50, Biological Activity against IGF-1R (Table B2)
Description: PathHunter cell lines were expanded from freezer stocks according to standard procedures. Cells were seeded in a total volume of 20 μL into white walled, 384-well microplates and incubated for the appropriate time prior to testing. Cells are pre-incubated with compound followed by EC80 agonist challenge as follows: • R. 1. […] Compound activity was analyzed using CBIS data analysis suite (ChemInnovation, CA). […]
Structures can show the parent of a compound that is named as a salt.

Query: Complete the entry with IC50 for COC[C@@H](C)Nc1cc(CN2C(=O)N(c3ccc(C(C)(C)C#N)cc3)C(=O)C2(C)C)ccn1
Response: ≤ 500 nM

Query: Complete the entry with IC50 for COCC1(Nc2cc(CN3C(=O)N(c4ccc(C5(C(F)(F)F)CC5)cc4)C(=O)C3(C)C)ccn2)CC1
Response: ≤ 500 nM

Query: Complete the entry with IC50 for CC(C)Nc1cc(CN2C(=O)N(c3ccc(C4(C#N)CCCC4)cc3)C(=O)C2(C)C)ccn1
Response: ≤ 500 nM

Query: Complete the entry with IC50 for CC1(C)C(=O)N(c2ccc(C3(C(F)(F)F)CCC3)cc2)C(=O)N1Cc1ccnc2c1CC(=O)N2 [Compound 30, hydrochloride]
Response: ≤ 500 nM

Query: Complete the entry with IC50 for C[C@@H](CC#N)Nc1cc(CN2C(=O)N(c3ccc(C4(C(F)(F)F)CC4)cc3)C(=O)C2(C)C)ccn1
Response: ≤ 500 nM

Query: Complete the entry with IC50 for C[C@@H](Nc1cc(CN2C(=O)N(c3ccc(S(=O)(=O)C(F)(F)F)cc3)C(=O)C2(C)C)ccn1)[C@@H]1CCCO1
Response: 500 to 2000 nM

Query: Complete the entry with IC50 for CCOC[C@H](C)Nc1cc(CN2C(=O)N(c3ccc(C4(C(F)(F)F)CC4)cc3)C(=O)C2(C)C)ccn1
Response: ≤ 500 nM

Query: Complete the entry with IC50 for CC(C)Nc1cc(CN2C(=O)N(c3ccc4c(c3)N(S(C)(=O)=O)CC43CCC3)C(=O)C2(C)C)ccn1
Response: ≤ 500 nM

Query: Complete the entry with IC50 for CN1C(=O)C(C)(C)c2ccc(N3C(=O)N(Cc4ccnc(N)c4)C(C)(C)C3=O)cc21
Response: 2000 to 10000 nM

Query: Complete the entry with IC50 for CC(C)Nc1cc(CN2C(=O)N(c3ccc4c(C5CC5)n[nH]c4c3)C(=O)C2(C)C)ccn1
Response: 2000 to 10000 nM

Query: Complete the entry with IC50 for CC(C)(C#N)c1ccc(N2C(=O)N(Cc3ccnc(N[C@H]4[C@@H]5COC[C@@H]54)c3)C(C)(C)C2=O)cc1
Response: ≤ 500 nM

Query: Complete the entry with IC50 for CC(C)c1ccc(N2C(=O)N(Cc3ccnc(N[C@H]4[C@@H]5COC[C@@H]54)c3)C(C)(C)C2=O)cc1OCCN(C)C
Response: ≤ 500 nM

Query: Complete the entry with IC50 for C[C@@H](CC#N)Nc1cc(CN2C(=O)N(c3ccc4c(c3)N(S(C)(=O)=O)CC43CC3)C(=O)C2(C)C)ccn1
Response: ≤ 500 nM

Query: Complete the entry with IC50 for CC1(C)C(=O)N(c2ccc(C3(C(F)(F)F)CC3)cc2)C(=O)N1Cc1ccnc(NCc2cc[nH]n2)c1
Response: ≤ 500 nM
